Quick list: EC (1.5-fold increase) per entry.
tested on: SMN2 minigene mRNA (SMN2-A minigene) in HEK293H cells; test: SMN2 minigene mRNA splicing RT-qPCR assay in cultured cells; assay type: cell-based, human; details: Homo sapiens, HEK293-H; concentration increasing full length SMN2 mRNA 1.5-fold relative to vehicle-treated cells; HEK293H cells with SMN2-A minigene, 24 hours, 7-point concentration data; read-out: EC1.5x for production of full length SMN2 mRNA

EC (1.5-fold increase) on SMN2 minigene mRNA (SMN2-A minigene) in HEK293H cells for Cc1cn2nc(-c3cc(=O)n4cc(N5CCC(N(C)C)CC5)cc(C)c4n3)cc2c(C)n1 [Compound 459] is < 0.1 µM

EC (1.5-fold increase) on SMN2 minigene mRNA (SMN2-A minigene) in HEK293H cells for CCCc1nc(C)cn2nc(-c3cc(=O)n4cc(N5CCN(C)CC5)ccc4n3)cc12 [Compound 724] is 0.3 to 1 µM

EC (1.5-fold increase) on SMN2 minigene mRNA (SMN2-A minigene) in HEK293H cells for CCc1nc(C)cn2nc(-c3cc(=O)n4cc(N5CCN(C6CC6)[C@H](C)C5)ccc4n3)cc12 [Compound 644] is 0.1 to 0.3 µM

EC (1.5-fold increase) on SMN2 minigene mRNA (SMN2-A minigene) in HEK293H cells for Cc1cc(C2CCN(CCO)CC2)cn2c(=O)cc(-c3ccc4c(cnn4C)c3)nc12 [Compound 788] is < 0.1 µM

EC (1.5-fold increase) on SMN2 minigene mRNA (SMN2-A minigene) in HEK293H cells for C[C@H]1CN(c2ccc3nc(-c4ccccc4)cc(=O)n3c2)CCN1 [Compound 34] is 1 to 3 µM

Let's switch to this compound now.
EC (1.5-fold increase) on SMN2 minigene mRNA (SMN2-A minigene) in HEK293H cells for Cc1cn2cc(-c3cc(=O)n4cc(N5CCN(C(C)C)CC5)ccc4n3)cc(F)c2n1 [Compound 373] is < 0.1 µM

###

Quick list: melting point per entry.

Solved entries:
Sample CCCN1CC=C(c2ccc3nc(-c4ccc(OC)c(OC)c4)cc(=O)n3c2)CC1 [Compound 365] ; melting point observed: 158 to 160 °C

Sample CCc1cc(C2CCN(CC)CC2)cn2c(=O)cc(-c3ccc(OC)c(OC)c3)nc12 [Compound 436] ; melting point observed: 157 to 162 °C

Sample O=c1cc(-c2cncc(Cl)c2)nc2ccc(N3CCNCC3)cn12 [Compound 94] ; melting point observed: 208 to 218 °C

Continuing:
Sample CN(C)c1ccc(-c2cc(=O)n3cc(N4CCNCC4)cc(F)c3n2)cc1 [Compound 49] ; melting point observed: 216 to 218 °C

Sample COc1ccc(-c2cc(=O)n3cc(N4CCC(NC(C)C)CC4)cc(C)c3n2)cc1OC [Compound 416] ; melting point observed: 178 to 183 °C

Sample COc1ccc(-c2cc(=O)n3cc(N4CCNCC4)ccc3n2)cc1[N+](=O)[O-] [Compound 167] ; melting point observed: 183 to 187 °C

Sample Cc1nc2ccc(-c3cc(=O)n4cc(N5CCN6CCC[C@@H]6C5)ccc4n3)cc2o1 [Compound 198] ; melting point observed: 194 to 199 °C

Sample Cc1cn2nc(-c3cc(=O)n4cc(C5=CCN(C6CCC6)CC5)ccc4n3)cc2c(C)n1 [Compound 356] ; melting point observed: 191 to 193 °C

###

Quick list: EC (1.5-fold increase) per entry.
test system: SMN2 minigene mRNA (SMN2-A minigene) in HEK293H cells; assay: SMN2 minigene mRNA splicing RT-qPCR assay in cultured cells; assay type: cell-based, human; conditions: Homo sapiens, HEK293-H; concentration increasing full length SMN2 mRNA 1.5-fold relative to vehicle-treated cells; HEK293H cells with SMN2-A minigene, 24 hours, 7-point concentration data; read-out: EC1.5x for production of full length SMN2 mRNA

Solved entries:
Sample COc1ccc(-c2cc(=O)n3cc(C4=CCN(C)CC4)ccc3n2)cc1OC [Cpd 188] ; EC (1.5-fold increase) observed: 0.1 to 0.3 µM

Sample CCCc1nc(C)cn2nc(-c3cc(=O)n4cc(N5CCN[C@@H](C)C5)ccc4n3)cc12 [Compound 728] ; EC (1.5-fold increase) observed: 0.1 to 0.3 µM

Sample Cc1cn2cc(-c3cc(=O)n4cc(N5CCC(C)(N)CC5)ccc4n3)cc2c(C)n1 [Compound 731] ; EC (1.5-fold increase) observed: < 0.1 µM

Sample COc1ncc(-c2cc(=O)n3cc(N4C[C@@H](C)N[C@@H](C)C4)ccc3n2)cc1F [Compound 174] ; EC (1.5-fold increase) observed: 1 to 3 µM

Sample COc1ccc(-c2cc(=O)n3cc(C4CCN(C)CC4)ccc3n2)cc1OC [Cpd 164] ; EC (1.5-fold increase) observed: 0.3 to 1 µM

Sample CCN1CCN(c2ccc3nc(-c4cc5cc(C)nc(C)c5o4)cc(=O)n3c2)CC1 [Compound 601] ; EC (1.5-fold increase) observed: < 0.1 µM

Continuing:
Sample CCN1CCC(c2ccc3nc(-c4ccc(OC)c(OC)c4)cc(=O)n3c2)CC1 [Compound 404] ; EC (1.5-fold increase) observed: 0.3 to 1 µM

Sample C[C@H]1CN(c2ccc3nc(-c4cncc(F)c4)cc(=O)n3c2)CCN1 [Compound 93] ; EC (1.5-fold increase) observed: 1 to 3 µM

###

Quick list: EC (1.5-fold increase) per entry.
tested on: SMN2 minigene mRNA (SMN2-A minigene) in HEK293H cells; assay: SMN2 minigene mRNA splicing RT-qPCR assay in cultured cells; type: cell-based, human; conditions: Homo sapiens, HEK293-H; concentration increasing full length SMN2 mRNA 1.5-fold relative to vehicle-treated cells; HEK293H cells with SMN2-A minigene, 24 hours, 7-point concentration data; read-out: EC1.5x for production of full length SMN2 mRNA

Solved entries:
Sample Cc1cn2nc(-c3cc(=O)n4cc(N5CCC(N(CCO)CCO)CC5)cc(C)c4n3)cc2c(C)n1 [Compound 597] ; EC (1.5-fold increase) observed: 0.1 to 0.3 µM

Sample CCN1CCN(c2cn3c(=O)cc(-c4ccc5nn(C)cc5c4)nc3cn2)CC1 [Compound 590] ; EC (1.5-fold increase) observed: 0.3 to 1 µM

Sample C[C@@H]1CN(c2ccc3nc(-c4ccc5c(c4)OCO5)cc(=O)n3c2)CCN1 [Compound 20] ; EC (1.5-fold increase) observed: 1 to 3 µM

Sample Cc1nc2ccc(-c3cc(=O)n4cc(C5=CCN(C)CC5)ncc4n3)cc2o1 [Compound 422] ; EC (1.5-fold increase) observed: < 0.1 µM

Sample Cc1cn2cc(-c3cc(=O)n4cc(N5CC[C@H](N(C)C)C5)ccc4n3)cc(F)c2n1 [Compound 275] ; EC (1.5-fold increase) observed: < 0.1 µM

Sample COc1ccc(-c2cc(=O)n3cc(N4C[C@H]5CCCN(C)[C@H]5C4)ccc3n2)cc1F [Compound 313] ; EC (1.5-fold increase) observed: 1 to 3 µM

Sample COc1ccc(-c2cc(=O)n3cc(C4=CCNCC4)ccc3n2)cc1F [Compound 186] ; EC (1.5-fold increase) observed: < 0.1 µM

Sample Cc1cc2cc(-c3cc(=O)n4cc(N5CCNCC5)ccc4n3)oc2c(C)n1 [Cpd 486] ; EC (1.5-fold increase) observed: < 0.1 µM

Sample C[C@H]1CN(c2ccc3nc(-c4ccc5c(cnn5C)c4)cc(=O)n3c2)CCN1 [Compound 553] ; EC (1.5-fold increase) observed: 0.1 to 0.3 µM

Sample Cc1cn2nc(-c3cc(=O)n4cc(OC5CCN(C)CC5)ccc4n3)cc2c(C)n1 [Compound 722] ; EC (1.5-fold increase) observed: < 0.1 µM

Continuing:
Sample Cc1nc2ccc(-c3cc(=O)n4cc(N5CCNCC5)ccc4n3)cn2c1C [Compound 125] ; EC (1.5-fold increase) observed: 0.3 to 1 µM

Sample CCc1cn2cc(-c3cc(=O)n4cc(N5CCNCC5)ccc4n3)ccc2n1 [Compound 124] ; EC (1.5-fold increase) observed: 0.3 to 1 µM

Sample Cc1nc2c(F)cc(-c3cc(=O)n4cc(C5=CCN(C)CC5)ccc4n3)cc2o1 [Compound 300] ; EC (1.5-fold increase) observed: < 0.1 µM

Sample CCCNC1CCN(c2cc(C)c3nc(-c4ccc(OC)c(OC)c4)cc(=O)n3c2)CC1 [Cpd 407] ; EC (1.5-fold increase) observed: < 0.1 µM

Sample Cc1cn2cc(-c3cc(=O)n4cc(N5CCN(C6CC6)[C@@H](C)C5)ccc4n3)cc(Cl)c2n1 [Compound 535] ; EC (1.5-fold increase) observed: < 0.1 µM

Sample CCCN1CCC(c2ccc3nc(-c4ccc5nc(C)cn5c4)cc(=O)n3c2)CC1 [Compound 470] ; EC (1.5-fold increase) observed: < 0.1 µM

Sample CCN1CCN(c2ccc3nc(-c4ccn5cc(C)nc5c4)cc(=O)n3c2)CC1 [Compound 558] ; EC (1.5-fold increase) observed: 1 to 3 µM
